test system: TO-3-N3-2 (biotin conjugate); assay: pull-down binding Z-score (relative to library population); higher = stronger binding; conditions: RNA library: Library-2
// bucketize pull-down binding Z-score: low class: < -0.3; middle class: ≥ -0.3 and < 0.07; high class: ≥ 0.07

inputSequence | labelValue
UCUUCCCAGAGUCAGGAAAA [hsa-mir-320c-1] | middle class
GUCUAAUCUCAAACCUUUUGAGAGAGAU | low class
GGCAUCAUAUGGGUUGCAACUGAGGGAGCCUUGAAUACACCAAAAGAUCACAUUGGCACCCGCAAUCCUGCUAACAAUGCU [DMSMaPseq_invitro_SARS-CoV-2_Motif_513] | middle class
GCUGCCAGGAAAUCCCUAUUUCAUAUAAGAGGGGGCUGGCUGGUUGC [hsa-mir-448] | high class
GUACCAAAGGUGC [IAV_invivo_PB1_2_Motif_35+IAV_invivo_PB1_2_Motif_35] | middle class
UGAAGAAGAGUAUUGAUUGUGCUGUUCG [hsa-mir-6788] | middle class
UUUGCUAUUACUUUUAAUGGUAAA [hsa-mir-548aj-2] | low class
UUUGUUGAAAGAAUAAAUAAACCAACAAG [hsa-mir-1264] | high class
CAGUACUGGUCUUAGACUG [hsa-mir-554] | high class
GAGACUUUAAAAGCGUCUC [hsa-mir-3926-1] | low class
GUACAUGGGCACACUUUCUUAUGAACAAUUUAAGAAAGGUGUUCAGAUACCUUGUAC [SHAPE_invitro_SARS-CoV-2_Motif_110] | low class
GAGACGCUUUUAAAGUCUC [hsa-mir-3926-2] | low class
AGGCUCUGCAAGAUCAACCGAGCA [hsa-mir-330] | high class
GCCACAAAGGC [IAV_invivo_PA_3_Motif_6+IAV_invivo_PA_3_Motif_6] | low class
CUGACAAAGUUUUCAG | low class
CACAUGAAGGUAAAACAUUUUAUGUUUUACCUAAUGAUG | low class
GGUGUUUUAACU | middle class
CUUAGUAGGUGAUAGCAUGACUGAC [hsa-mir-5002] | high class
UGGCAUGGAAGUCA [DMSMaPseq_invitro_SARS-CoV-2_Motif_525] | middle class
CUGUGGUGGCUGCUUAUGCACCACGG [hsa-mir-105-2] | middle class
GCCCUGGAAUGAUGAUGGGC [IAV_invivo_PB1_2_Motif_20+IAV_invivo_PB1_2_Motif_20] | middle class
UGCUGUGCUGUGCUGAGCAGGGCUGAGCUG [hsa-mir-4539] | high class
CUUAGUUUUAAG [DMSMaPseq_invitro_SARS-CoV-2_Motif_263] | middle class
UUAUUCAGAGAGGCUAGAUCCUCUGUGUUGAGAAGGAUCA [hsa-mir-433] | high class
UGCUCAAGAAGCUUAUGAGCA [SHAPE_invivo_SARS-CoV-2_Motif_229] | high class
AGUGAGUACACUGGUAAUUACCAGUGUGGUCACU [SHAPE_invivo_SARS-CoV-2_Motif_119] | middle class
GUUGGCUCAAGAAAGGGAGAUAGAUGGUAGCCC [hsa-mir-6884] | high class
CAGUGGCAUCUGUCAUUG [hsa-mir-4663] | low class
AACCAGUUAACUGGUU [SHAPE_invivo_SARS-CoV-2_Motif_126] | low class
ACACGGUGUUUAAACCGUGU | middle class
AUUCUAUUCUAUUCUAUUCU [r(AUUCU)4] | middle class
GCUGGUCGCGGGUUGUGGGGUUUAGGUCACCGGC [hsa-mir-5091] | high class
ACACUGCGCUGCCCCAGACCCACUGU [hsa-mir-210] | high class
ACCUAAAUAGAGGU | low class
GUGCACUUCAUUUACGAUGUAG [hsa-mir-1193] | high class
ACCCAGGACUCUUUCAUGACCA [hsa-mir-665] | high class
AUCUGAGGUGACUGGCACAGAAGACUCAGG [hsa-mir-6735] | high class
AUAGAACAUUGACAUCAACACUAG [hsa-mir-4278] | middle class
GCGCGGGAAAGUUCGGGAACGCGCG [hsa-mir-4479] | high class
CAACGGUACUAUUACCGUUG | low class
CUUUCUGUUGUCUAAAAGAAAAGAAAG [hsa-mir-520d] | low class
ACAGAGUGAGAUGGUCUUGUUUUGU [hsa-mir-5684] | low class
GUCAAAGUGAC [SHAPE_invivo_SARS-CoV-2_Motif_385] | low class

----------
system: G-clamp-N3 (biotin conjugate); test: pull-down binding Z-score (relative to library population); higher = stronger binding; conditions: RNA library: Library-1 (pre-miRNA loops + repeats)

inputSequence | assayedSystem | pull-down binding Z-score
AGCCCUGUUGUUGUAAGAUAGUGU [hsa-mir-550a-1] | G-clamp-N3 (biotin conjugate) | -0.249
UGGGGUUGGGGUUGGGGUUGGGGUUGGGGUUGGGGUUGGGGUUGGGGU [G4_(UGGGGU)8] | G-clamp-N3 (biotin conjugate) | 1.45
AUUACUUGUGUUCUAUAUAAAGUAUU [hsa-mir-92a-2] | G-clamp-N3 (biotin conjugate) | -0.855
GUGAGAUGUUCAUACAAUCCCUCAC [hsa-mir-216a] | G-clamp-N3 (biotin conjugate) | -1.01
GGGAAGGAGAAGGGACGCUUCCC [hsa-mir-3127] | G-clamp-N3 (biotin conjugate) | 2.68
AGUCUCUGAAGAGAGCUGUGGACUGA [hsa-mir-6721] | G-clamp-N3 (biotin conjugate) | 1.18
GAGCCCUUGCACACCACCAGCCUC [hsa-mir-6845] | G-clamp-N3 (biotin conjugate) | -1.73
UGCUCUGGUGACUGAGGACCGCCAGGCA [hsa-mir-4763] | G-clamp-N3 (biotin conjugate) | -0.385
GGAGACGGGUCUUUCUC [hsa-mir-1208] | G-clamp-N3 (biotin conjugate) | -1.52
ACAGCAGUCUUACUGAAGGUUUCCUGGAAACCACGCACAUGCUGU [hsa-mir-744] | G-clamp-N3 (biotin conjugate) | -0.613
CUGUGGCCGGUCCCAG [hsa-mir-4656] | G-clamp-N3 (biotin conjugate) | -0.405

----------
system: TO-3-N3 (biotin conjugate); assay: pull-down binding Z-score (relative to library population); higher = stronger binding; settings: RNA library: Library-2
// bucketize pull-down binding Z-score: class 0: < -0.8; class 1: ≥ -0.8 and < 0.4; class 2: ≥ 0.4

inputSequence | labelValue
UGUUCACUUUCUAUAUGAUGAAUA [hsa-mir-656] | class 0
AGUGAGGCGUCGGCUGUGUUUCU [hsa-mir-2110] | class 1
GAGGUGAUGCAGAUACUUACCUG [U1snRNP5ss-20] | class 2
UCCACAAGGAGGGGAUGACCCUUGUGGG [hsa-mir-4437] | class 2
GGGCGUGGUGGACAGCGAUGCAUCCC [hsa-mir-6803] | class 2
AUUCAGACUCAGGU [hsa-mir-921] | class 1
AGCUUUAUGUAUUCUGAAGUUAUUGAAAAUAAGAGCU [hsa-mir-3140] | class 0

----------
Entries annotated with measured pull-down binding Z-score
test system: TO-3-N3 (biotin conjugate); experiment: pull-down binding Z-score (relative to library population); higher = stronger binding; conditions: RNA library: Library-2

inputSequence | pull-down binding Z-score
GGGCGCCGGCGGCCGGGAGAUCCGCGCUUCCUGAAUCCCGGCCGGCCCGCCCGGCGCCC [hsa-mir-4497] | 0.25
UGUGCCUUGCCUUUCCUUUGGCACA [hsa-mir-4438] | -0.0269
GCUUUGAUAUGGAACGUUAAAGAUUUCAUGUCAUUGU | -0.179
GCGCUGCCAGAAACUGGCUGCGC [mismatch-UU] | 0.141
AGGACGGUGCGCCUUGUUUCCC [hsa-mir-3132] | -0.376
GGAGCAGACAGACCCAACCUCAUGCUCC [hsa-mir-6763] | 0.0429
GGAGAAGAACCC [IAV_invivo_PB2_1_Motif_3+IAV_invivo_PB2_1_Motif_3] | -0.254
UACUAACAGCACUGGAGGGUGUA [hsa-mir-142] | -0.0529
AGUGCCAACAGACAAUUAUAUAACCACUUACCCGGGUCAGGGUUUAAAUGGUUACACU | -0.449
GGGCUGCCCGGGCCGGUCGACCAGCGCGCCGUAGCUCC [hsa-mir-6724-2_6724-3_6724-1_6724-4] | 0.0652
GGCCUGGGCCUGGGCCUGGGCCUGGGCCUGGGCCUG [r(GGCCUG)6] | 0.00804
UAUUACAGAUCUUUACCAGGAGUUUUCUGUGGUG | -0.624
GUGUGUGGCGUGGGUGCUGCGGGGCCGUCAGGGUGCCUGCGGGACGCUCAC [hsa-mir-6765] | 0.665
AUAUAAGGGAAGGCAUUAUAG [hsa-mir-3117] | 0.00808
AACCAGUUAACUGGUU [SHAPE_invivo_SARS-CoV-2_Motif_126] | 0.328
GCUUCUGCUGCAUGAUCUCCGAGUCCCUGGGGGUAGAGAUGAUGGGGCACUGGGAGGU [hsa-mir-1282] | 0.113
AGUGGCCAAUUCCU [hsa-mir-4251] | -0.482
ACCGGUGGAAUUGCUAUCGCAAUGGCUUGUCUUGUAGGCUUGAUGUGGCUCAGCUACUUCAUUGCUUCUUUCAGACUGUUUGCGCGUACGCGUUCCAUGUGGU | 1.2
UGCUGUUGUUAAAAUUUAUUGUCCAGCA [SHAPE_invitro_SARS-CoV-2_Motif_28] | -0.341
UUUAAGACACCCUGUACCUUAAA [hsa-mir-3121] | -0.44
AAGUGCUUUUGUUAAUUUAAAACAAUUACCAUUU [SHAPE_invitro_SARS-CoV-2_Motif_354] | -0.729
GAAUUCGAUUCAUCAAAGCGAGUC [hsa-mir-485] | -0.128
CAGGCUGGUCUCAAACUCCUGGUCUG [hsa-mir-1285-1] | -0.202
CUUUAGUAAUUACCUAAAGAGACGUGUAGUCUUUAAUGGUGUUUCCUUUAG | -0.924
UCCUGUAGUGUCUUAUAUACAAUACAGUAGGA [hsa-mir-613] | -0.741
CACUGUACAGUCUAAAAUGUCAGAUGUAAAGUG [DMSMaPseq_invitro_SARS-CoV-2_Motif_208] | -0.25
CCUCUCGGGAACUACAAGUCCCAGGGGG [hsa-mir-2861] | -0.694
CUGGGGUUGGAAUGUGACCCCA [hsa-mir-4654] | 0.425
GAAGCUGUAAGACACAGCUAAGCUUU [hsa-mir-30d] | -0.376
CUUAGUUUUAAG [DMSMaPseq_invitro_SARS-CoV-2_Motif_263] | -0.781
UAGGCUGUUUCCAUCUGUGAGGCCUA [hsa-mir-26a-2] | -0.164
AAGGAGCUGGUGGCCAUAGUUACGGCGCCGAUCUAAAGUCAUUUGACUUAGGCGACGAGCUUGGCACUGAUCCUU [DMSMaPseq_invitro_SARS-CoV-2_Motif_14] | 0.0504
CAGAGGGAGGCCAAGAAGACCUCUG [hsa-mir-4793] | -0.656
GCACGUAGUGUAGCUAGUCAAUCCAUCAUUGCCUACACUAUGUC | 0.288
AGGGACCCCCGGAGUCUGUCACGGUCUCA [hsa-mir-6784] | -0.0169
CACUAAAAAGUGGAAAUACCCACAAGUUAAUG | -0.634
UAUAGCUACAUCAGUUAUAACUAUAUCAGUUAAA [hsa-mir-5582] | 1.67
AAAGUGCUUUUGUUAAUUUAAAACAAUUACCAUUUU [SHAPE_invivo_SARS-CoV-2_Motif_363] | -0.825
GUUAAAAAUCUGAAUUCUUCUAGAGUUCCUGAUCUUCUGGUCUAAAC | -0.557
